molecular target: T1, HLA-DR molecule DRB1*0401 (human); experiment: radioligand inhibition, purified HLA-DR; settings: remark: other sources report otherwise
T1 chain 1: not shown
T1 chain 2: not shown

{"columns": ["binder", "IC50 / µM"],
 "data": [
  ["HNQVRQVPLQRLRIV [Peptide 9019.0034 (Her2/neu.88)]", 0.84]
]}
